system: C4-2B/ENZR; assay: Cytotoxic activity test (MTT) on C4-2B/ENZR prostate cancer cells; assay type: cell-based, human; conditions: C4-2B/ENZR cells
recordedMetric: IC50 (nM)
State just the number; it will be interpreted in nM.

Known results for molecules:
{"molecule": "C=C(C)[C@@]12OC3(/C=C/C=C/CCCCC)O[C@@H]1[C@@H]1[C@@H]4O[C@]4(COC(C)=O)[C@@H](O)[C@]4(O)C(=O)C(C)=C[C@H]4[C@@]1(O3)[C@H](C)[C@H]2OC(=O)c1ccccc1", "subjectOfTest": "C4-2B/ENZR", "recordedMetric": "IC50", "valueReported": 136}
{"molecule": "C=C(C)C12OC3(c4ccccc4)OC1C1C(O)C(O)(CO)C(O)C4(O)C(=O)C(C)=CC4C1(O3)C(C)C2OC(=O)c1ccccc1 (stereo not drawn)", "subjectOfTest": "C4-2B/ENZR", "recordedMetric": "IC50", "valueReported": 77.4}

Task: Give its IC50 value. Item: C=C(C)C1(O)C(O)C2C3OC3(CO)C(O)C3(O)C(=O)C(C)=CC3C2(O)C(C)C1OC(=O)c1ccccc1 (stereo not drawn)
Result: 1870

====

Listed below: IC50 values for each entry.
tested on: C4-2B/ENZR; test: Cytotoxic activity test (MTT) on C4-2B/ENZR prostate cancer cells; type: cell-based, human; details: Homo sapiens, C4-2B/ENZR cells
// note: answer is a bare numeric in nM

{"smilesRecord": "C=C(C)[C@@]12OC3(c4ccccc4)O[C@@H]1[C@@H]1[C@@H]4O[C@]4(COC(C)=O)[C@@H](OC(C)=O)[C@]4(O)C(=O)C(C)=C[C@H]4[C@@]1(O3)[C@H](C)[C@H]2OC(=O)c1ccccc1", "IC50 [nM]": 1900}

Next item in the queue.
Task: So what's the measured IC50 for this one? C=C(C)[C@@]12OC3(/C=C/C=C/CCCCC)O[C@@H]1[C@@H]1[C@@H]4O[C@]4(COC(=O)c4ccccc4)[C@@H](O)[C@]4(O)C(=O)C(C)=C[C@H]4[C@@]1(O3)[C@H](C)[C@H]2OC(C)=O
Result: 2300

====

tested on: 22RV1; assay: Cytotoxic activity test (MTT) on 22RV1 prostate cancer cells; type: cell-based, human; settings: 22RV1 cells, MTT; read-out: Prostate cancer cells IC50 22RV1
Quick reference for IC50 among some compounds
Answer with a number only, understood to be in µM.

{"compound": "C=C(C)[C@@]12OC3(c4ccccc4)O[C@@H]1[C@@H]1[C@@H]4O[C@]4(COC(=O)CCCCCCCCCCCCCCC)[C@@H](O)[C@]4(O)C(=O)C(C)=C[C@H]4[C@@]1(O3)[C@H](C)[C@H]2OC(C)=O", "valueReported": 44.5}
{"compound": "C=C(C)C1(O)C(O)C2C3OC3(CO)C(O)C3(O)C(=O)C(C)=CC3C2(O)C(C)C1OC(=O)c1ccccc1 (stereo not drawn)", "valueReported": 46.7}
{"compound": "C=C(C)C1(O)C(OC(=O)c2ccccc2)C(C)C2(O)C(C(O)C(O)(CO)C(O)C3(O)C(=O)C(C)=CC32)C1OC(=O)c1ccccc1 (stereo not drawn)", "valueReported": 47.1}
{"compound": "C=C(C)[C@@]12OC3(c4ccccc4)O[C@@H]1[C@@H]1[C@@H]4O[C@]4(CO)[C@@H](O)[C@]4(O)C(=O)C(C)=C[C@H]4[C@@]1(O3)[C@H](C)[C@H]2OC(=O)CCC", "valueReported": 0.00574}
{"compound": "C=C(C)C12OC3(c4ccccc4)OC1C1C4OC4(CO)C(O)C4(O)C(=O)C(C)CC4C1(O3)C(C)C2OC(C)=O (stereo not drawn)", "valueReported": 0.144}

Continue with the compound presented below.
Task: Consider the compound shown here: C=C(C)[C@@]12OC3(c4ccccc4)O[C@@H]1[C@@H]1[C@@H]4O[C@]4(CO)[C@@H](O)[C@]4(O)C(=O)C(C)=C[C@H]4[C@@]1(O3)[C@H](C)[C@H]2OC(=O)CC What is its recorded IC50?
Result: 0.434

====

test system: C4-2B/ENZR; experiment: Cytotoxic activity test (MTT) on C4-2B/ENZR prostate cancer cells; assay type: cell-based, human; settings: C4-2B/ENZR cells
recordedMetric: pIC50
Would you please state pIC50, meaning minus log10 of the concentration in mol/L, as a bare number?

{"compound": "C=C(C)[C@@]12OC3(/C=C/C=C/CCCCC)O[C@@H]1[C@@H]1[C@@H]4O[C@]4(COC(C)=O)[C@@H](O)[C@]4(O)C(=O)C(C)=C[C@H]4[C@@]1(O3)[C@H](C)[C@H]2OC(C)=O", "recordedMetric": "pIC50", "valueReported": 7.17}
{"compound": "C=C(C)[C@@]12OC3(c4ccccc4)O[C@@H]1[C@@H]1[C@@H]4O[C@]4(COC(=O)CCCCCCCCCCCCCCC)[C@@H](O)[C@]4(O)C(=O)C(C)=C[C@H]4[C@@]1(O3)[C@H](C)[C@H]2OC(C)=O", "recordedMetric": "pIC50", "valueReported": 6.36}
{"compound": "C=C(C)[C@@]12OC3(/C=C/C=C/CCCCC)O[C@@H]1[C@@H]1[C@@H]4O[C@]4(COC(=O)c4ccccc4)[C@@H](O)[C@]4(O)C(=O)C(C)=C[C@H]4[C@@]1(O3)[C@H](C)[C@H]2OC(=O)c1ccccc1", "recordedMetric": "pIC50", "valueReported": 5.24}
{"compound": "C=C(C)C1(O)C(O)C2C3OC3(CO)C(O)C3(O)C(=O)C(C)=CC3C2(O)C(C)C1OC(C)=O (centres unmarked)", "recordedMetric": "pIC50", "valueReported": 4.40}

Moving on to the next compound.
Task: Reported pIC50, compound C=C(C)C1(O)C(O)C(C)C2(O)C(C3OC3(CO)C(O)C3(O)C(=O)C(C)=CC32)C1OC(=O)C=CC=CCCCCC (centres unmarked) : ____
Result: 6.27

====

The entries below are paired with their reported pIC50.
test system: 22RV1; experiment: Cytotoxic activity test (MTT) on 22RV1 prostate cancer cells; type: cell-based, human; settings: 22RV1 cells, MTT; read-out: Prostate cancer cells IC50 22RV1
Friendly reminder that pIC50 comes from taking -log10 of the concentration in mol/L.

Solved cases below.
{"compound": "C=C(C)C12OC3(c4ccccc4)OC1C1C4OC4(CO)C(O)C4(O)C(=O)C(C)CC4C1(O3)C(C)C2OC(=O)c1ccccc1 (centres unmarked)", "pIC50": 7.37}
{"compound": "C=C(C)C12OC3(c4ccccc4)OC1C1C(O)C(O)(CO)C(O)C4(O)C(=O)C(C)=CC4C1(O3)C(C)C2OC(=O)c1ccccc1 (centres unmarked)", "pIC50": 5.75}
{"compound": "C=C(C)[C@@]12OC3(/C=C/C=C/CCCCC)O[C@@H]1[C@@H]1[C@@H]4O[C@]4(COC(C)=O)[C@@H](O)[C@]4(O)C(=O)C(C)=C[C@H]4[C@@]1(O3)[C@H](C)[C@H]2OC(C)=O", "pIC50": 7.34}
{"compound": "C=C(C)[C@@]12OC3(C)O[C@@H]1[C@@H]1C=C(CO)C[C@]4(O)C(=O)C(C)=C[C@H]4[C@@]1(O3)[C@H](C)[C@H]2OC(=O)c1ccccc1", "pIC50": 5.33}

Next, consider the following compound.
Task: Recorded pIC50 of C=C(C)[C@@]12OC3(c4ccccc4)O[C@@H]1[C@@H]1[C@@H]4O[C@]4(CO)[C@@H](O)[C@]4(O)C(=O)C(C)=C[C@H]4[C@@]1(O3)[C@H](C)[C@H]2OC(=O)C(C)C , please.
Result: 7.58

====

system: C4-2B/ENZR; assay: Cytotoxic activity test (MTT) on C4-2B/ENZR prostate cancer cells; type: cell-based, human; details: C4-2B/ENZR cells
recordedMetric: pIC50
Here pIC50 is given on a logarithmic scale as minus log10 of the concentration in mol/L.

Reference set, count: 2
{"molecule": "C=C(C)C12OC3(c4ccccc4)OC1C1C4OC4(CO)C(O)C4(O)C(=O)C(C)CC4C1(O3)C(C)C2OC(C)=O (stereo not drawn)", "subjectOfTest": "C4-2B/ENZR", "valueReported": 8.72}
{"molecule": "C=C(C)C1(O)C(OC(=O)c2ccccc2)C(C)C2(O)C(C(O)C(O)(CO)C(O)C3(O)C(=O)C(C)=CC32)C1OC(=O)c1ccccc1 (stereo not drawn)", "subjectOfTest": "C4-2B/ENZR", "valueReported": 5.57}

Field: next molecule
Task: # query: pIC50 of entry C=C(C)[C@@]12OC3(C)O[C@@H]1[C@@H]1C=C(CO)C[C@]4(O)C(=O)C(C)=C[C@H]4[C@@]1(O3)[C@H](C)[C@H]2OC(=O)c1ccccc1
Result: 6.19

====

test system: C4-2B/ENZR; assay: Cytotoxic activity test (MTT) on C4-2B/ENZR prostate cancer cells; format: cell-based, human; settings: Homo sapiens, C4-2B/ENZR cells
recordedMetric: IC50 (nM)
Use nM as the unit, but write only the number.

{"compound": "C=C(C)[C@@]12OC3(c4ccccc4)O[C@@H]1[C@@H]1[C@@H]4O[C@]4(COC(C)=O)[C@@H](O)[C@]4(O)C(=O)C(C)=C[C@H]4[C@@]1(O3)[C@H](C)[C@H]2OC(=O)c1ccccc1", "IC50, nM": 6.79}
{"compound": "C=C(C)[C@@]1(O)[C@H](OC(=O)c2ccccc2)[C@@H]2[C@@H]3O[C@]3(CO)[C@@H](O)[C@]3(O)C(=O)C(C)=CC3[C@@]2(O)[C@H](C)[C@H]1OC(=O)c1ccccc1 (some centres unmarked)", "IC50, nM": 73.9}
{"compound": "C=C(C)[C@@]12OC3(c4ccccc4)O[C@@H]1[C@@H]1[C@@H]4O[C@]4(COC(=O)c4ccccc4)[C@@H](O)[C@]4(O)C(=O)C(C)=C[C@H]4[C@@]1(O3)[C@H](C)[C@H]2OC(C)=O", "IC50, nM": 1460}
{"compound": "COc1cccc2c1C(=O)c1c(O)c3c(c(O)c1C2=O)C[C@@](O)(C(=O)CO)C[C@@H]3O[C@H]1C[C@H](N)[C@H](O)[C@H](C)O1 [DOX, doxorubicin, reference compound]", "IC50, nM": 2.87}

Pending compound:
Task: Item under review: C=C(C)[C@@]12OC3(c4ccccc4)O[C@@H]1[C@@H]1[C@@H]4O[C@]4(CO)[C@@H](O)[C@]4(O)C(=O)C(C)=C[C@H]4[C@@]1(O3)[C@H](C)[C@H]2OC(C)=O . Reported IC50?
Result: 2.34
